Test system: HCC-2998 colon
METHOD: NCI-60 one-dose screen, 48 h
TEST_CONTEXT: 10 µM unless noted
This is part of a sample that, as a whole, favours compounds with a hit. Of some 83,000 tested, about 20% had one in any assay. The source made the active and inactive calls. Rule for the calls: active = growth percent below 10; inactive = the rest.
Possible outcomes: active, inactive

• N#Cc1c(-c2ccc(Cl)cc2)nc2n[nH]c(-c3ccc(Cl)cc3)c2c1-c1ccc(C(F)(F)F)cc1 = active
• CCCS(=O)(=O)N1CCCC(C(=O)Nc2nc3ccc(NC(=O)c4ccc(F)c(OC)c4F)cc3s2)C1 (centres undefined) = inactive
• O=C(/C=C/c1ccc(-c2ccccc2)cc1)c1nc2ccccc2n1Cc1ccc(Br)cc1 = inactive
• Cc1cccc(NC(=O)[C@]23CCC(C)(C)CC2C2=CCC4[C@@]5(C)C[C@@H](O)[C@H](O)[C@@](C)(CO)C5CC[C@@]4(C)[C@]2(C)CC3)c1 (some centres undefined) = active

* * *

Listed next: entries and their corresponding growth.
Test system: NCI/ADR-RES ovarian
METHOD: NCI-60 one-dose screen, 48 h (100 = growth as untreated, 0 = no growth, -100 = all killed)
TEST_CONTEXT: 10 µM unless noted
About 83,000 compounds went through this panel and 20% of them were active in at least one assay; those are over-represented in the sample as a whole. Activity calls are given as the source filed them. How the source made its calls: active means growth percent below 10; inactive means the rest.
READOUT_TYPE: growth

- COc1cc(/C=C/C(=O)c2nnn(-c3ccc(Cl)cc3)c2C)cc(OC)c1OC: 8.27% (active)
- CC(=O)Nc1cccc(-c2nc3cc(-c4ccc(O)cc4)ccc3n2C)c1: 65.2% (inactive)
- CCCSc1nc(NCCc2c[nH]c3ccccc23)c(C#N)c(-c2ccc(OC)cc2)n1: 47.9% (inactive)
- CC1(C)CC[C@]2(C(=O)Nc3ccc(F)cc3)CC[C@]3(C)C(=CCC4[C@@]5(C)C[C@@H](O)[C@H](O)[C@@](C)(CO)C5CC[C@]43C)C2C1 (stereo partly specified): 43% (inactive)
- Cc1cc2nc3c4ccccc4n(CCNCCN(C)C)c3nc2cc1C: 24.6% (inactive)
- Cc1ccc(C2=NN(c3nc(-c4cc5ccccc5oc4=O)cs3)C(c3ccc(C)cc3)C2)cc1 (stereo unspecified): 101% (inactive)

* * *

Tested on: SK-MEL-28 melanoma
METHOD: NCI-60 one-dose screen, 48 h
TEST_CONTEXT: 10 µM unless noted
This is part of a sample that, as a whole, favours compounds with a hit. Of some 83,000 tested, about 20% had one in any assay. Activity calls are given as the source filed them. How the source made its calls: active means growth percent below 10; inactive means the rest.
Labels: y = active, n = inactive

- CN(C)CCn1c2ccccc2c2nc3cc(C(F)(F)F)ccc3nc21: n
- Nc1nnc(-c2c[nH]c3ncc(Br)cc23)c(-c2c[nH]c3ccc(F)cc23)n1: n
- COc1cc2c(c(OC)c1OC)C(=O)CC(c1cccc(NC(=O)c3cc(NC(=O)[C@@H](N)CO)ccc3C)c1)O2 (stereo not given in full): n
- CCC(C)(C)c1ccc(OCCCCN2CCN(c3ccncc3)CC2)cc1: y
- CC1=C(C(=O)c2ccccc2)C(c2cccc3ccccc23)n2c(nc3ccccc32)N1 (stereo not given): n
- CC(C)Sc1nc(NCCc2c[nH]c3ccccc23)c(C#N)c(-c2ccc(F)cc2)n1: n
- COc1cc(NC(=O)c2cccc(C3CCc4c(cc(OC)c(OC)c4OC)O3)c2)cc(OC)c1OC (stereo not given): n
- COc1ccc([C@H](C)Nc2nc(Cl)nc3ccccc23)cc1: n
- COc1ccc(C(=O)/C=C/c2ccc(OCc3ccc(F)cc3)c(OC)c2)cc1OC: n
- Cc1nc(Nc2ccccn2)sc1C(=O)CC(SCC(=O)Nc1ccc(Cl)cc1)c1ccccc1F (stereo not given): n
